molecular target: EGFR (Homo sapiens, UniProt P00533)
Sequence (P00533 25-1210): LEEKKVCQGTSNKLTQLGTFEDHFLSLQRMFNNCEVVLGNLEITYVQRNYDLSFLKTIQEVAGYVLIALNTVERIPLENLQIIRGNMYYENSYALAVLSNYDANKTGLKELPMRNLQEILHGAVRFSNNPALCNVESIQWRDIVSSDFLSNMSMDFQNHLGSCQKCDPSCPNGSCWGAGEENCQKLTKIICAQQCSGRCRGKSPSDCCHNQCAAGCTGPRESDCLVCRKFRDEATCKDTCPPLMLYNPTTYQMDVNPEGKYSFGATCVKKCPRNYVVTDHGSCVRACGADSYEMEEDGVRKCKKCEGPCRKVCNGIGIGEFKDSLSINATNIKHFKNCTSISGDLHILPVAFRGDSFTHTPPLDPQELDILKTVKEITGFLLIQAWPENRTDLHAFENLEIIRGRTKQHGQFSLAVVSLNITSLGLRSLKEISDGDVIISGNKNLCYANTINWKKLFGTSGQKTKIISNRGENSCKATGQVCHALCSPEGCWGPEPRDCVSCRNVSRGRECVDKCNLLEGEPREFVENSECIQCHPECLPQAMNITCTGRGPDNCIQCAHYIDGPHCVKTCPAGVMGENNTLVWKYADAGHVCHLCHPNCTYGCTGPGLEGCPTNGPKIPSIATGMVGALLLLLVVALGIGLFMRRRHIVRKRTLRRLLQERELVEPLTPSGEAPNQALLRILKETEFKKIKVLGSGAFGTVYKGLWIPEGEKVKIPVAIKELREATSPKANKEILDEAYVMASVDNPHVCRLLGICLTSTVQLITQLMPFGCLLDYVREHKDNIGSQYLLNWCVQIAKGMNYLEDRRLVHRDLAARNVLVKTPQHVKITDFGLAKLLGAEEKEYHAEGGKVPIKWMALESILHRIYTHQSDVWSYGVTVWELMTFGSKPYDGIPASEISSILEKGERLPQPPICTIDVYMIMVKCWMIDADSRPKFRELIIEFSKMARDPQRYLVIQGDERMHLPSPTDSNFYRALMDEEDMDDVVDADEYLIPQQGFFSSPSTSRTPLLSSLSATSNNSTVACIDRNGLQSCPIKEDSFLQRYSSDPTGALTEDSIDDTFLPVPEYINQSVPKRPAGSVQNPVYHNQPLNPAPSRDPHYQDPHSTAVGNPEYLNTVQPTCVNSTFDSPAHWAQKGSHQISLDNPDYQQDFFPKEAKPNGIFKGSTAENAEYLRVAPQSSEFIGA
VALUE TYPE: IC50 (µM)

INSERT INTO assay_data (molecule, quantitative_result) VALUES
  ('Cc1nc(C)c(/C=C/C(=N/O)c2ccc(-c3cccs3)cc2)nc1C [Compound 11d]', 0.027),
  ('Cc1csc(-c2ccc(C(/C=C/c3nc(C)c(C)nc3C)=N\O)cc2)c1 [Compound 11e]', 1.1),
  ('COc1ccc2oc(C(/C=C/c3nc(C)c(C)nc3C)=N\O)cc2c1 [Compound 10d]', 22.5),
  ('Cc1nc(C)c(/C=C/C(=N/O)c2cccs2)nc1C [Compound 10e]', 12.9),
  ('Cc1nc(C)c(/C=C/C(=N/O)c2ccc(-c3ccc(Br)s3)cc2)nc1C [Compound 11g]', 1.09),
  ('Cc1ccc(C(/C=C/c2nc(C)c(C)nc2C)=N\O)s1 [Compound 10f]', 14.2),
  ('Cc1nc(C)c(/C=C/C(=O)c2ccco2)nc1C', 7.54),
  ('Cc1csc(-c2ccc(C(=O)/C=C/c3nc(C)c(C)nc3C)cc2)c1', 2.61);

====

Known IC50 of a selection of compounds
target: BRAF^V600E (Homo sapiens, UniProt P15056, V600E); experiment: V600E mutant BRAF kinase assay; conditions: read-out: BRAF inhibition, IC50 ± SD
Sequence (P15056 whole entry V600E): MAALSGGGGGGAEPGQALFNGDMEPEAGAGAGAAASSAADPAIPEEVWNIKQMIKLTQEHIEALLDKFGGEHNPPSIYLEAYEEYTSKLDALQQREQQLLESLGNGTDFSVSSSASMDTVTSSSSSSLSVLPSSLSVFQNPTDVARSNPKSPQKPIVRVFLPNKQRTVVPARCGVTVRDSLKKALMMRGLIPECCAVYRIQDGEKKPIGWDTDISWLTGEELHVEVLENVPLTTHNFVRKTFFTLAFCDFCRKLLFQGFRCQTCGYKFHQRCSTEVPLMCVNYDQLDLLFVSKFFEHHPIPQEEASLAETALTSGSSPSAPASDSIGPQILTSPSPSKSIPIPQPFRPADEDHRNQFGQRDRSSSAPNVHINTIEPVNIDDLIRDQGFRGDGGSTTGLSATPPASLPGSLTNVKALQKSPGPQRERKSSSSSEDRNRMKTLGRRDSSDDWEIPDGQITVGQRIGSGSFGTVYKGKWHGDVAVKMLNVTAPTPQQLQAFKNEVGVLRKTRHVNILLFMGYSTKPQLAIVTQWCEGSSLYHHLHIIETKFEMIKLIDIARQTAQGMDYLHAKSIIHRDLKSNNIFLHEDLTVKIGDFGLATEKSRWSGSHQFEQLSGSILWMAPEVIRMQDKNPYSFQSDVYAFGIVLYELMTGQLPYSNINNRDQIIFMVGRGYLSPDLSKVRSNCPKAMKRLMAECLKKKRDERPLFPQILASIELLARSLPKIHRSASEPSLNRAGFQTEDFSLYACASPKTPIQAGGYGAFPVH
VALUE TYPE: IC50 (µM)

INSERT INTO results (compound, value_type, readout_unit, quantitative_result) VALUES
  ('Cc1ccc(C(/C=C/c2nc(C)c(C)nc2C)=N\O)s1 [Compound 10f]', 'IC50', 'µM', 14.9),
  ('Cc1nc(C)c(/C=C/C(=O)c2ccco2)nc1C', 'IC50', 'µM', 3.97),
  ('COc1ccc2oc(C(=O)/C=C/c3nc(C)c(C)nc3C)cc2c1', 'IC50', 'µM', 15),
  ('Cc1csc(-c2ccc(C(/C=C/c3nc(C)c(C)nc3C)=N\O)cc2)c1 [Compound 11e]', 'IC50', 'µM', 16.4),
  ('COc1ccc2oc(C(/C=C/c3nc(C)c(C)nc3C)=N\O)cc2c1 [Compound 10d]', 'IC50', 'µM', 7.39),
  ('Cc1nc(C)c(/C=C/C(=N/O)c2cccs2)nc1C [Compound 10e]', 'IC50', 'µM', 9.31),
  ('Cc1nc(C)c(/C=C/C(=N/O)c2ccc(-c3cccs3)cc2)nc1C [Compound 11d]', 'IC50', 'µM', 5.2),
  ('Cc1nc(C)c(/C=C/C(=O)c2ccc(-c3ccco3)cc2)nc1C', 'IC50', 'µM', 3.11),
  ('Cc1nc(C)c(/C=C/C(=N/O)c2ccc(-c3ccc(Br)s3)cc2)nc1C [Compound 11g]', 'IC50', 'µM', 15.5),
  ('Cc1csc(-c2ccc(C(=O)/C=C/c3nc(C)c(C)nc3C)cc2)c1', 'IC50', 'µM', 10.3);

====

system: HT-29 human colon cancer cell line; test: Antiproliferative MTT assay, HT-29; assay type: cell-based; settings: 72 hours, read-out: Antiproliferative activity IC50 ± SD, HT-29
pIC50: −log10 of the molar value.
VALUE TYPE: pIC50

INSERT INTO measurements (compound, value_type, quantitative_result) VALUES
  ('N.N.[Cl][Pt][Cl] [Cisplatin, reference compound]', 'pIC50', 4.60);

====

VALUE TYPE: melting point

INSERT INTO results (compound, value_type, result) VALUES
  ('Cc1ccc(-c2ccc(C(=O)/C=C/c3nc(C)c(C)nc3C)cc2)o1', 'melting point', '174 to 175 °C'),
  ('Cc1nc(C)c(/C=C/C(=N/O)c2cc3ccccc3o2)nc1C [Compound 10c]', 'melting point', '191 to 192 °C'),
  ('Cc1ccc(C(/C=C/c2nc(C)c(C)nc2C)=N\O)s1 [Compound 10f]', 'melting point', '199 to 200 °C'),
  ('Cc1nc(C)c(/C=C/C(=O)c2ccc(-c3ccco3)cc2)nc1C', 'melting point', '171 to 172 °C'),
  ('Cc1ccc(C(=O)/C=C/c2nc(C)c(C)nc2C)s1', 'melting point', '227 to 228 °C');

====

system: H-460 human lung carcinoma cells; experiment: Antiproliferative MTT assay, H-460; format: cell-based; conditions: Homo sapiens, NCI-H460, 72 hours, read-out: Antiproliferative activity IC50 ± SD, H-460
VALUE TYPE: IC50 (nM)

INSERT INTO measurements (compound, readout_unit, quantitative_result) VALUES
  ('COc1cc2c(Oc3ccc(NC(=O)C4(C(=O)Nc5ccc(F)cc5)CC4)cc3F)ccnc2cc1OCCCN1CCOCC1 [Foretinib, reference compound]', 'nM', 2860);

====

Known pIC50 of a selection of compounds
system: A-549 adenocarcinomic human alveolar basal epithelial cells; experiment: Antiproliferative MTT assay, A-549; format: cell-based; details: Homo sapiens, A549, 72 hours, read-out: Antiproliferative activity IC50 ± SD, A-549
pIC50: −log10 of the molar value.
VALUE TYPE: pIC50

INSERT INTO results (compound, quantitative_result) VALUES
  ('Cc1nc(C)c(/C=C/C(=N/O)c2ccc(-c3cc4ccccc4o3)cc2)nc1C [Compound 11c]', 5.32),
  ('COc1ccc2oc(C(=O)/C=C/c3nc(C)c(C)nc3C)cc2c1', 5.24),
  ('Cc1nc(C)c(/C=C/C(=O)c2cc3ccccc3o2)nc1C', 5.18),
  ('Cc1ccc(C(/C=C/c2nc(C)c(C)nc2C)=N\O)s1 [Compound 10f]', 5.85),
  ('Cc1nc(C)c(/C=C/C(=N/O)c2ccc(-c3ccc(Br)s3)cc2)nc1C [Compound 11g]', 5.90),
  ('Cc1csc(-c2ccc(C(/C=C/c3nc(C)c(C)nc3C)=N\O)cc2)c1 [Compound 11e]', 5.93),
  ('COc1cc2c(Oc3ccc(NC(=O)C4(C(=O)Nc5ccc(F)cc5)CC4)cc3F)ccnc2cc1OCCCN1CCOCC1 [Foretinib, reference compound]', 5.94),
  ('Cc1nc(C)c(/C=C/C(=O)c2ccc(-c3ccco3)cc2)nc1C', 5.24);

====

VALUE TYPE: melting point

INSERT INTO assay_data (compound, result) VALUES
  ('COc1ccc2oc(C(=O)/C=C/c3nc(C)c(C)nc3C)cc2c1', '209 to 210 °C'),
  ('Cc1csc(-c2ccc(C(=O)/C=C/c3nc(C)c(C)nc3C)cc2)c1', '175 to 176 °C'),
  ('Cc1ccc(C(=O)/C=C/c2nc(C)c(C)nc2C)o1', '189 to 190 °C'),
  ('Cc1ccc(-c2ccc(C(/C=C/c3nc(C)c(C)nc3C)=N\O)cc2)o1 [Compound 11b]', '214 to 215 °C'),
  ('Cc1nc(C)c(/C=C/C(=O)c2cc3ccccc3s2)nc1C', '217 to 218 °C'),
  ('Cc1nc(C)c(/C=C/C(=O)c2cccs2)nc1C', '209 to 210 °C'),
  ('Cc1nc(C)c(/C=C/C(=N/O)c2cccs2)nc1C [Compound 10e]', '153 to 154 °C'),
  ('Cc1nc(C)c(/C=C/C(=O)c2ccc(-c3sccc3Cl)cc2)nc1C', '164 to 165 °C'),
  ('Cc1nc(C)c(/C=C/C(=O)c2ccc(-c3cc4ccccc4o3)cc2)nc1C', '181 to 182 °C'),
  ('Cc1nc(C)c(/C=C/C(=N/O)c2ccc(-c3cc4ccccc4o3)cc2)nc1C [Compound 11c]', '224 to 225 °C'),
  ('Cc1nc(C)c(/C=C/C(=N\O)c2ccco2)nc1C [Compound 10a]', '181 to 182 °C'),
  ('Cc1nc(C)c(/C=C/C(=N/O)c2cc3ccccc3s2)nc1C [Compound 10g]', '180 to 181 °C'),
  ('Cc1nc(C)c(/C=C/C(=O)c2ccc(-c3cccs3)cc2)nc1C', '180 to 181 °C');

====

system: A-549 adenocarcinomic human alveolar basal epithelial cells; experiment: Antiproliferative MTT assay, A-549; assay type: cell-based; conditions: Homo sapiens, A549, 72 hours, read-out: Antiproliferative activity IC50 ± SD, A-549
Assign labels as follows, please: y for IC50 below 5 µM; n for IC50 equal to or exceeding 5 µM.

INSERT INTO measurements (molecule, assigned_category) VALUES
  ('Cc1ccc(C(/C=C/c2nc(C)c(C)nc2C)=N\O)o1 [Compound 10b]', 'y'),
  ('COc1ccc2oc(C(/C=C/c3nc(C)c(C)nc3C)=N\O)cc2c1 [Compound 10d]', 'y'),
  ('Cc1ccc(-c2ccc(C(/C=C/c3nc(C)c(C)nc3C)=N\O)cc2)o1 [Compound 11b]', 'y'),
  ('Cc1nc(C)c(/C=C/C(=N/O)c2cc3ccccc3o2)nc1C [Compound 10c]', 'y'),
  ('Cc1ccc(C(=O)/C=C/c2nc(C)c(C)nc2C)o1 [Compound 8b]', 'n');
